These data points were gathered from paper PMC11176775.

# test-system: apurinic/apyrimidinic endonuclease 1 (APE1) (UniProt P27695 1-318)
# Sequence (P27695 whole entry): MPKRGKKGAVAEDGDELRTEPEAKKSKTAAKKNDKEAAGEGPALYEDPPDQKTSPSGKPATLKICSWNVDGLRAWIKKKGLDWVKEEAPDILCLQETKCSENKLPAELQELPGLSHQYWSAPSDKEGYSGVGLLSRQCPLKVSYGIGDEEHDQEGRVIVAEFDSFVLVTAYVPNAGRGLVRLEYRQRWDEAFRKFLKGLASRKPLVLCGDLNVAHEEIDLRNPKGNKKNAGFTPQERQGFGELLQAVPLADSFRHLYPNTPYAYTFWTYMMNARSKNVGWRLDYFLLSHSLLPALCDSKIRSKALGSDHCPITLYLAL
# procedure-summary: BLI; BLI (Octet QKe), 20 °C: polβ, APE1, LIGIIIα in 20 mM Hepes pH 7.4, 200 mM NaCl, 0.5% BSA, 0.05% Tween 20; LIG1 in 50 mM Tris-HCl pH 7.5, 100 mM KCl, 1 mM DTT; no Mg2+ listed
# test-parameters: protein: recombinant; tags: His; label: 3'-biotin on S2; 1-nt gap opposite template C; strands 1 and 2 pair with strand 3; blunt outer ends
pKd: −log10 of the molar value.
result-type: pKd

• one-nucleotide gap DNA (template C) (dsDNA, 5'-phosphate on S2 at the gap; 3'-OH on S1) DNA 1: CATGGGCGGCATGAACC DNA 2: GAGGCCCATCCTCACC DNA 3: GGTGAGGATGGGCCTCCGGTTCATGCCGCCCATG = 7.15
